Molecular target: Antibody No. 245.1
Assay: peptide blocking ELISA on plate-bound VISTA, peptide 20 ug/mL
Reported property: percent reduction in ELISA signal (%)

- Binder: "LAQRHGLESASDHHG (synthetic overlapping peptide from human VISTA) [Spiked Peptide 17 (LAQRHGLESASDHHG)]"
  Reported: 26
- Binder: "PYSLYVCPEGQNVTL (synthetic overlapping peptide from human VISTA) [Spiked Peptide 2 (PYSLYVCPEGQNVTL)]"
  Reported: 9
- Binder: "HLHHGGHQAANTSHD (synthetic overlapping peptide from human VISTA) [Spiked Peptide 14 (HLHHGGHQAANTSHD)]"
  Reported: 66
- Binder: "GPVDKGHDVTFYKTW (synthetic overlapping peptide from human VISTA) [Spiked Peptide 6 (GPVDKGHDVTFYKTW)]"
  Reported: 9
- Binder: "SDHHGNFSITMRNLT (synthetic overlapping peptide from human VISTA) [Spiked Peptide 19 (SDHHGNFSITMRNLT)]"
  Reported: 9
- Binder: "GHQAANTSHDLAQRH (synthetic overlapping peptide from human VISTA) [Spiked Peptide 15 (GHQAANTSHDLAQRH)]"
  Reported: 0
- Binder: "TFQDLHLHHGGHQAA (synthetic overlapping peptide from human VISTA) [Spiked Peptide 13 (TFQDLHLHHGGHQAA)]"
  Reported: 57
- Binder: "FKVATPYSLYVCPEG (synthetic overlapping peptide from human VISTA) [Spiked Peptide 1 (FKVATPYSLYVCPEG)]"
  Reported: 0
- Binder: "YRSSRGEVQTCSERR (synthetic overlapping peptide from human VISTA) [Spiked Peptide 9 (YRSSRGEVQTCSERR)]"
  Reported: 0
